The measurements presented in this section are drawn from patent US12427163B2.

# measured-target: T1, human VTCN1 protein (Homo sapiens, UniProt Q7Z7D3)
# T1 construct: His
# T1 sequence (Q7Z7D3 25-282): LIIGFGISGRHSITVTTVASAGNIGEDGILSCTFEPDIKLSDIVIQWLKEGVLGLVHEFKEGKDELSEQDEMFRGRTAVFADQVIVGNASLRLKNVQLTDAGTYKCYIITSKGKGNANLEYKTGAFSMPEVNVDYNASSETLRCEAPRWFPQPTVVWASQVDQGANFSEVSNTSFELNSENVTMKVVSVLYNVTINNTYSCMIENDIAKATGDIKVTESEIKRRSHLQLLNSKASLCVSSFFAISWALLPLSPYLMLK
# protocol-notes: Affinity to recombinant VTCN1-his by OCTET Red (Protein A biosensors)
# Assay type: binding
# experimental-setup: Table 9

| molecule | K(off) |
| --- | --- |
| hu6D9_66B1: humanized 6D9 antibody; VH SEQ ID NO: 236, VL SEQ ID NO: 224 (antibody, V domains shown) VH: QVQLVESGGGVVQPGRSLRLSCAVSGFTFSSYGVQWVRQAPGKGLEWLGVIWSSGSTDYNAAFLSRLTISKDNSKNTVYFQMNSLRAEDTAVYYCARDVTTIVEGFAHWGQGTLVTVSS VL: DIQMTQSPSSLSASVGDRVTITCKASEKVGTYVSWYQQKPGKAPKLLIYGASNRYTGVPSRFSGSGSGTDFTLTISSLQPEDFATYYCGQTYSYPFTFGQGTKLEIK | 3.25E−03 |
